Origin of the recorded values: ChEMBL document CHEMBL3098056

Recorded measurements of IC50, one per entry
Molecular target: Matrix metalloproteinase-9 (Homo sapiens)
Sequence (P14780 whole entry): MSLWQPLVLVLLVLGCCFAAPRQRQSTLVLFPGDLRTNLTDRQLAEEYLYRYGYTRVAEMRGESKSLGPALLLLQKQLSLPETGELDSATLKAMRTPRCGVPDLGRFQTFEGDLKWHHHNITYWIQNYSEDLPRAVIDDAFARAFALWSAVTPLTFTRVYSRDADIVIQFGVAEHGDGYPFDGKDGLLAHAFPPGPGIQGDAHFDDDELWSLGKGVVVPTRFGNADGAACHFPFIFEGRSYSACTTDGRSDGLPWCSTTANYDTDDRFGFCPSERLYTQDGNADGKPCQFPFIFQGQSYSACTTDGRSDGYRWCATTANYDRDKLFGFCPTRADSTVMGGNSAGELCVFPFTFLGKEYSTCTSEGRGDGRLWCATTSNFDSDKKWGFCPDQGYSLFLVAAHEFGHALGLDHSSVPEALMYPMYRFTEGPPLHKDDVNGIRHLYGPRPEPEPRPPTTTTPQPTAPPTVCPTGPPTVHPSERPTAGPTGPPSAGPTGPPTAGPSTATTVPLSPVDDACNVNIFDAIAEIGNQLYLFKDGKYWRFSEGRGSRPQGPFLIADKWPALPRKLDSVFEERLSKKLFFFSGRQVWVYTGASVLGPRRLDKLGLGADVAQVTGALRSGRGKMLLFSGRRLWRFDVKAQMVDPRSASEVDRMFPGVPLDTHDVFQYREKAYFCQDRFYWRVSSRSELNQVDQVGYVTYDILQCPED
Assay: Inhibition of human MMP-9 after 60 mins by FRET assay

molecular-string	target-entity	IC50
COc1ccccc1CCC(=O)Nc1ccc2nc(C)cc(N)c2c1	Matrix metalloproteinase-9 (Homo sapiens)	> 100 µM
Cc1cc(N)c2cc(NC(=O)c3cccc(-c4cccc5cccnc45)c3)ccc2n1	Matrix metalloproteinase-9 (Homo sapiens)	> 100 µM
Cc1cc(N)c2cc(NC(=O)c3ccc(Oc4ccccc4)cc3)ccc2n1	Matrix metalloproteinase-9 (Homo sapiens)	> 100 µM
Cc1cc(N)c2cc(NC(=O)c3cccc(-c4ccc(N(C)C)cc4)c3)ccc2n1	Matrix metalloproteinase-9 (Homo sapiens)	> 100 µM
Cc1cc(N)c2cc(NC(=O)CCc3ccccc3C(F)(F)F)ccc2n1	Matrix metalloproteinase-9 (Homo sapiens)	> 100 µM
Cc1cc(N)c2cc(NC(=O)c3cccc(-c4cnc5ccccc5c4)c3)ccc2n1	Matrix metalloproteinase-9 (Homo sapiens)	16 µM
